- System: rodent lifetime carcinogenesis bioassay, tumor incidence TD50
- test: carcinogenic potency in animals, long-term in vivo studies, CPDB compilation (AID 1745844)
- measurement.setup: rat; strain Fischer 344; males; in drinking water; site: skin; lesion: one or several types; types not named; dosed 30 weeks; study length 104 weeks
measured.quantity: TD50

Answered examples (2):
CCN(N=O)C(=O)NCC(C)=O | 0.982 mg/kg/day
CCN(N=O)C(=O)NCCO | 0.401 mg/kg/day

Proceed to the following item.
In: Reported TD50, compound `CCNC(=O)N(CCO)N=O` : ____
Out: 0.641 mg/kg/day

* * *

- System: rodent lifetime carcinogenesis bioassay, tumor incidence TD50
- test: carcinogenic potency in animals, long-term in vivo studies, CPDB compilation (AID 1745844)
- measurement.setup: rat; strain F344/DuCrj; females; in feed; site: clitoral gland; lesion: adenocarcinoma; dosed 112 weeks; study length 112 weeks
measured.quantity: TD50 (mg/kg/day)
Give bare numbers, in mg/kg/day.

In: Which TD50 is reported for this molecule? `Cc1nc(N)cc2[nH]c3ccccc3c12`
Out: 75.5

* * *

- System: rodent lifetime carcinogenesis bioassay, tumor incidence TD50
- test: carcinogenic potency in animals, long-term in vivo studies, CPDB compilation (AID 1745844)
- measurement.setup: rat; strain Fischer 344; males; by gavage; site: kidney; lesion: tubular-cell adenoma; dosed 103 weeks; study length 104 weeks
measured.quantity: TD50

In: Request the reported TD50 associated with `ClC(Cl)C(Cl)(Cl)Cl`
Out: 635 mg/kg/day

* * *

Provide the recorded TD50 for the entries that follow.
- Tested on: rodent lifetime carcinogenesis bioassay, tumor incidence TD50
- test: carcinogenic potency in animals, long-term in vivo studies, CPDB compilation (AID 1745844)
- measurement.setup: mouse; strain Swiss albino; males; in drinking water; site: liver; lesion: several types; types named in the paper; dosed 83 weeks; study length 83 weeks
Number first, unit second: that is the form wanted.

NNC=O | 1150 mg/kg/day

In: Which TD50 value belongs to `O=CNNC=O` ?
Out: 8140 mg/kg/day

* * *

- Tested on: rodent lifetime carcinogenesis bioassay, tumor incidence TD50
- test: carcinogenic potency in animals, long-term in vivo studies, CPDB compilation (AID 1745844)
- measurement.setup: rat; strain Fischer 344; females; in drinking water; site: esophagus; lesion: carcinoma; dosed 50 weeks; study length 55 weeks
measured.quantity: TD50

In: Lookup: TD50 / rodent lifetime carcinogenesis bioassay, tumor incidence TD50 / C=CCN(CC(O)CO)N=O (stereo unspecified)
Out: 1.13 mg/kg/day

* * *

- Tested on: rodent lifetime carcinogenesis bioassay, tumor incidence TD50
- test: carcinogenic potency in animals, long-term in vivo studies, CPDB compilation (AID 1745844)
- measurement.setup: rat; strain Fischer 344; males; in feed; site: urinary bladder; lesion: squamous-cell carcinoma; dosed 27 weeks; study length 104 weeks
measured.quantity: TD50

In: Item under review: `COc1ccccc1[N+](=O)[O-]` . Reported TD50?
Out: 422 mg/kg/day

* * *

- Test system: rodent lifetime carcinogenesis bioassay, tumor incidence TD50
- test: carcinogenic potency in animals, long-term in vivo studies, CPDB compilation (AID 1745844)
- measurement.setup: mouse; strain CBA; females; in feed; site: liver; lesion: hepatoma; dosed 52 weeks; study length 99 weeks
measured.quantity: TD50

In: Form field: TD50 recorded for `CN(C)c1ccc(C(=N)c2ccc(N(C)C)cc2)cc1` with rodent lifetime carcinogenesis bioassay, tumor incidence TD50 (enter value)
Out: 67.7 mg/kg/day

* * *

- Tested on: rodent lifetime carcinogenesis bioassay, tumor incidence TD50
- test: carcinogenic potency in animals, long-term in vivo studies, CPDB compilation (AID 1745844)
- measurement.setup: rat; strain Wistar; females; in feed; site: urinary bladder; lesion: transitional-cell carcinoma; dosed 104 weeks; study length 104 weeks
measured.quantity: TD50

In: What value of measured TD50 is listed for `Nc1cc(Cl)c(-c2cc(Cl)c(N)cc2Cl)cc1Cl` ?
Out: 2310 mg/kg/day

* * *

- Tested on: rodent lifetime carcinogenesis bioassay, tumor incidence TD50
- test: carcinogenic potency in animals, long-term in vivo studies, CPDB compilation (AID 1745844)
- measurement.setup: mouse; strain Swiss albino; males; in drinking water; site: paraepididymal tissue; lesion: angiosarcoma; dosed 52 weeks; study length 52 weeks
measured.quantity: TD50 (mg/kg/day)
One number for each entry, in mg/kg/day.

In: Find the measured TD50: item `CNNC` , target or system rodent lifetime carcinogenesis bioassay, tumor incidence TD50.
Out: 0.337

* * *

- Test system: rodent lifetime carcinogenesis bioassay, tumor incidence TD50
- test: carcinogenic potency in animals, long-term in vivo studies, CPDB compilation (AID 1745844)
- measurement.setup: rat; strain Hebrew University; males; several routes; site: eyelid; lesion: epidermoid carcinoma; dosed 95 weeks; study length 95 weeks
measured.quantity: TD50

In: Missing value: TD50, rodent lifetime carcinogenesis bioassay, tumor incidence TD50, entry `NC(N)=S` . Fill in?
Out: 225 mg/kg/day

* * *

- Test system: rodent lifetime carcinogenesis bioassay, tumor incidence TD50
- test: carcinogenic potency in animals, long-term in vivo studies, CPDB compilation (AID 1745844)
- measurement.setup: rat; strain Fischer 344; males; in feed; site: skin; lesion: squamous-cell carcinoma + squamous-cell papilloma; dosed 12 weeks; study length 103 weeks
measured.quantity: TD50
Please make sure the unit comes right after the number.

In: Entry `OCC(CO)(CBr)CBr` : reported TD50 = ?
Out: 21.7 mg/kg/day

* * *

- Test system: rodent lifetime carcinogenesis bioassay, tumor incidence TD50
- test: carcinogenic potency in animals, long-term in vivo studies, CPDB compilation (AID 1745844)
- measurement.setup: rat; strain Charles River CD (Sprague-Dawley); females; in feed; site: mammary gland; lesion: one or several types; types not named; dosed 78 weeks; study length 104 weeks
I'd appreciate it if you could supply TD50 values for the items below.
Answers are plain numbers, in mg/kg/day.

Consider the worked cases shown below.
NC(=S)C(N)=S | 12.6
[N-]=[N+]=[N-] | 3.01

// below: TD50 requested for another compound
In: So what TD50 did `NNC(N)=S` get with rodent lifetime carcinogenesis bioassay, tumor incidence TD50?
Out: 3.07

* * *

- Tested on: rodent lifetime carcinogenesis bioassay, tumor incidence TD50
- test: carcinogenic potency in animals, long-term in vivo studies, CPDB compilation (AID 1745844)
- measurement.setup: rat; strain Charles River CD (Sprague-Dawley); females; in feed; site: mammary gland; lesion: benign tumor; dosed 52 weeks; study length 52 weeks
measured.quantity: TD50 (mg/kg/day)
Answers are plain numbers, in mg/kg/day.

In: Need TD50 of `CCNc1nc(Cl)nc(NC(C)(C)C#N)n1` , thanks.
Out: 8.77

* * *

- Test system: rodent lifetime carcinogenesis bioassay, tumor incidence TD50
- test: carcinogenic potency in animals, long-term in vivo studies, CPDB compilation (AID 1745844)
- measurement.setup: mouse; strain ICR/Jcl; males; in drinking water; site: lung; lesion: one or several types; types not named; dosed 109 weeks; study length 109 weeks
Active and inactive are the calls of the source. The rule behind the calls is not given here.
measured.quantity: TD50

In: Hello, I am looking for reported TD50 with rodent lifetime carcinogenesis bioassay, tumor incidence TD50 for `O=NO` . Could you help?
Out: 16300 mg/kg/day (inactive)

* * *

- Tested on: rodent lifetime carcinogenesis bioassay, tumor incidence TD50
- test: carcinogenic potency in animals, long-term in vivo studies, CPDB compilation (AID 1745844)
- measurement.setup: rat; strain Fischer 344; males; in drinking water; site: kidney; lesion: renal-cell adenoma; dosed 100 weeks; study length 100 weeks
measured.quantity: TD50 (mg/kg/day)
Answers are plain numbers, in mg/kg/day.

In: Item `[O-][Br+2]([O-])O` with rodent lifetime carcinogenesis bioassay, tumor incidence TD50 - TD50?
Out: 31.1

* * *

- System: rodent lifetime carcinogenesis bioassay, tumor incidence TD50
- test: carcinogenic potency in animals, long-term in vivo studies, CPDB compilation (AID 1745844)
- measurement.setup: mouse; strain B6C3F1; males; inhaled; site: liver; lesion: hepatocellular adenoma + hepatocellular carcinoma + neoplastic nodule; dosed 104 weeks; study length 105 weeks
measured.quantity: TD50
Quick note: unit goes after the number.

In: Which TD50 is listed for `CCBr` ?
Out: 3670 mg/kg/day

* * *

- System: rodent lifetime carcinogenesis bioassay, tumor incidence TD50
- test: carcinogenic potency in animals, long-term in vivo studies, CPDB compilation (AID 1745844)
- measurement.setup: hamster; strain Syrian Golden; males; in drinking water; site: all sites; lesion: histiocytoma, malignant; dosed 102 weeks; study length 102 weeks
measured.quantity: TD50

In: // fetch rodent lifetime carcinogenesis bioassay, tumor incidence TD50 TD50 for `CN(N)C=O`
Out: 12.7 mg/kg/day

* * *

- System: rodent lifetime carcinogenesis bioassay, tumor incidence TD50
- test: carcinogenic potency in animals, long-term in vivo studies, CPDB compilation (AID 1745844)
- measurement.setup: mouse; strain Ha/ICR; males; inhaled; site: lung; lesion: several types; types named in the paper; dosed 26 weeks; study length 108 weeks
measured.quantity: TD50

In: Query (compound): `ClCOCCl` ; field requested: TD50
Out: 1.16 mg/kg/day
